For each entry below, report its IC50 value.
- assay: Cytotoxicity assay HepG2
- cond: human

>  <compound>
CC(=O)Oc1cc2c(cc1OC(C)=O)[C@@H](OC(C)=O)[C@@H]1[C@@]3(C)CCCC(C)(C)[C@@H]3CC[C@]1(C)O2 [Compound 20, 15-α-acetoxypuupehenol diacetate]

>  <IC50>
> 200 µM

$$$$
>  <compound>
CCC(=O)Oc1cc2c(cc1OC(=O)CC)[C@@H](OC(=O)CC)[C@@H]1[C@@]3(C)CCCC(C)(C)[C@@H]3CC[C@]1(C)O2

>  <IC50>
64.2 µM

$$$$

Input line: Need IC50, item CCC(=O)Oc1cc2c(cc1OC(=O)CC)[C@@H](OC)[C@@H]1[C@@]3(C)CCCC(C)(C)[C@@H]3CC[C@]1(C)O2
Output line: > 200 µM
